Data provenance is paper PMC10814857.

system_tested: NCK1-1 SH3 domain (aa 2-61) (Homo sapiens, UniProt P16333)
Construct: 2-61; GST (N); made in house; host or cells: Escherichia coli CodonPlus, Rosetta, BL21(DE3)
protocol_notes: Fluorescence polarization SH3 domain-PRP binding
settings: FP, 0.2 µM fluorescein-labeled peptide, SH3 domain 0-200 µM, Tris/HCl pH 7.5, 25 °C, quadratic fit, read-out: Kd
Peptide text beside a SMILES is read from it.
measured_attribute: Kd

Noted for CC(C)C[C@H](NC(=O)[C@@H]1CCCN1C(=O)[C@@H](NC(=O)[C@H](CCCNC(=N)N)NC(=O)[C@@H]1CCCN1C(=O)[C@H](CO)NC(=O)[C@H](CC(N)=O)NC(=O)[C@@H]1CCCN1C(=O)[C@H](C)NC(=O)[C@@H](N)CO)[C@@H](C)O)C(=O)N[C@H](C(=O)N1CCC[C@H]1C(=O)N1CCC[C@H]1C(=O)N1CCC[C@H]1C(=O)N[C@@H](C)C(=O)N[C@@H](CO)C(=O)O)[C@@H](C)O [Peptide P1] (H-SAPNSPRTPLTPPPAS-OH) : its Kd reads > 200 µM
